# Tested on: 616215-338-R-J1-PDC tumor spheroids, viability;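 note: spheroids exposed to agents for 7 days before readout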
# Experiment summary: Anticancer human tumor 616215-338-R-J1-PDC patient-derived colon adenocarcinoma cell line growth inhibition [GQUAD]
# Condition description: curve of first compound; second compound 0.0316 µM; spheroids with HUVEC and MSC
Each record here notes measured IC50.

COc1cccc2c1C(=O)c1c(O)c3c(c(O)c1C2=O)CC(O)(C(=O)CO)CC3OC1CC(N)C(O)C(C)O1 (configuration not stated) + CN(C)c1ccc(Nc2c3ccc(NC(=O)CCN4CCCC4)cc3nc3cc(NC(=O)CCN4CCCC4)ccc23)cc1: 467 nM
CC1COCCN1c1cc(-c2ccnn2C)c2ccnc(-c3ccn[nH]3)c2n1 (configuration not stated) + Cc1cnc(CNC(=O)c2c(=O)c3ccc(N4CCCN(C)CC4)nc3n3c2sc2ccccc23)cn1: < 31.6 nM

Per the records, this molecule ( CC(C)n1c(=O)n(C)c2cnc3cc(F)c(-c4ccc(OCCCN5CCCCC5)nc4)cc3c21 + Cc1cnc(CNC(=O)c2c(=O)c3ccc(N4CCCN(C)CC4)nc3n3c2sc2ccccc23)cn1 ) has IC50 equal to 5420 nM

Per the records, this molecule ( Cc1[nH]c2ccccc2c1CCNCc1ccc(/C=C/C(=O)NO)cc1 + Cc1[nH]c2ccc(F)cc2c1-c1nc2c3cccnc3c3ncccc3c2[nH]1 ) has IC50 equal to 145 nM

Value of measured IC50 for the entry C=CCn1c(=O)c2cnc(Nc3ccc(N4CCN(C)CC4)cc3)nc2n1-c1cccc(C(C)(C)O)n1 + Cc1[nH]c2ccc(F)cc2c1-c1nc2c3cccnc3c3ncccc3c2[nH]1 : 330 nM

Query C=CC(=O)N1CCN(c2nc(=O)n(-c3c(C)ccnc3C(C)C)c3nc(-c4c(O)cccc4F)c(F)cc23)C(C)C1 (configuration not stated) + Cc1cnc(CNC(=O)c2c(=O)c3ccc(N4CCCN(C)CC4)nc3n3c2sc2ccccc23)cn1 yields IC50 of > 10000 nM

In plain terms, CC1COCCN1c1cc(-c2ccnn2C)c2ccnc(-c3ccn[nH]3)c2n1 (configuration not stated) + CN(C)c1ccc(Nc2c3ccc(NC(=O)CCN4CCCC4)cc3nc3cc(NC(=O)CCN4CCCC4)ccc23)cc1 has a documented IC50 of 157 nM

What the record says about O=C(c1cc(Cc2n[nH]c(=O)c3ccccc23)ccc1F)N1CCN(C(=O)C2CC2)CC1 + Cc1[nH]c2ccc(F)cc2c1-c1nc2c3cccnc3c3ncccc3c2[nH]1 : IC50 is > 10000 nM

Noted for C=CCn1c(=O)c2cnc(Nc3ccc(N4CCN(C)CC4)cc3)nc2n1-c1cccc(C(C)(C)O)n1 + Cc1cnc(CNC(=O)c2c(=O)c3ccc(N4CCCN(C)CC4)nc3n3c2sc2ccccc23)cn1 : its IC50 reads 255 nM

In plain terms, COc1ncnc(C2CC2)c1-c1ncc2cnn(Cc3ccc(-c4nc(C(F)(F)F)cn4C(C)C)cc3)c2n1 + Cc1[nH]c2ccc(F)cc2c1-c1nc2c3cccnc3c3ncccc3c2[nH]1 has a documented IC50 of > 10000 nM

Record C=CCn1c(=O)c2cnc(Nc3ccc(N4CCN(C)CC4)cc3)nc2n1-c1cccc(C(C)(C)O)n1 + CN(C)c1ccc(Nc2c3ccc(NC(=O)CCN4CCCC4)cc3nc3cc(NC(=O)CCN4CCCC4)ccc23)cc1 . Reported IC50: 344 nM

Lookup result for O=c1[nH]cc(F)c(=O)[nH]1 + Cc1[nH]c2ccc(F)cc2c1-c1nc2c3cccnc3c3ncccc3c2[nH]1 ; measured IC50: 685 nM
